Reference for the values: paper PMC5540273

# Test system: CDC2L5;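 note: KINOMEscan kinase panel screen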
# Construct: gene CDK13
# MEASUREMENT_SETUP: concentration: 1 μM, replicates: in singlicate; n = 1
QUANTITY: %Inh

Solved cases below.
ENTRY_SMILES: CCNc1nccc(-c2c(-c3ccc(F)cc3)ncn2C2CCN(C)CC2)n1
%Inh: 0%
//
ENTRY_SMILES: CN(c1ccc(NC(=O)N2CCN(CCCN3CCOCC3)CC2)cc1)c1ccnc(Nc2ccc(CS(C)(=O)=O)cc2)n1.Cl
%Inh: 0%

Alright, here's another compound for you.
Answer with %Inh of `Cc1ccc(NC(=O)c2cccc(N3CCCCC3)c2)cc1-c1ccc(C(=O)NCC2CC2)cc1` measured for CDC2L5.
0%
